System: HTT mRNA
Protocol details: Splicing RT-qPCR assay (THP), Table 2A
Type: cell-based
Run parameters: Table 2A (THP), CJ mRNA decrease, read-out: HTT CJ (decrease in canonical junction mRNA, IC50)
compounds and their reported IC50

{"columns": ["Compound", "IC50"],
 "data": [
  ["Cc1cc2cc(NC(=O)c3ccc(N4CCC(NC5CC5)CC4)c4cn(C)nc34)oc2c(C)n1 [Compound 451, 2,2,2-trifluoroacetate]", "> 10 µM"],
  ["CCNC1CCN(c2cc(F)c(C(=O)Nc3cn4cc(C)nc(C)c4n3)c3nn(C)cc23)CC1", "> 10 µM"],
  ["COc1cc2n[nH]cc2cc1NC(=O)c1c(F)cc(N2CCC(NC3CC3)CC2)c2cn(C)nc12", "> 10 µM"]
]}

What measured IC50 goes with C#CCCC1(CCN2CCN(c3ccc(C(=O)Nc4cc(F)c5nc(C)cn5c4)c4nn(C)cc34)CC2)N=N1 [Compound 376, bis(2,2,2-trifluoroacetate)] ?
1 to 10 µM

What measured IC50 goes with "COc1cn2nc(C)cc2cc1NC(=O)c1ccc(N2CCC(NC3CC3)CC2)c2cn(C)nc12" ?
> 10 µM

###

Test system: MYB mRNA
Protocol details: Gene panel canonical junction qPCR assay, decrease in CJ mRNA, Table 3
Format: cell-based
Run parameters: decrease in canonical junction (CJ) mRNA, gene panel qPCR, Table 3
compounds and their reported IC50

What measured IC50 goes with Cc1cn2cc(NC(=O)c3ccc(N4CCC(NC5CC5)CC4)c4cn(C)nc34)nc2c(CN(C)C)n1 [Compound 600, bis(2,2,2-trifluoroacetate)] ?
> 10000 nM

What measured IC50 goes with "Cc1cn2cc(NC(=O)c3ccc(N4C[C@H](C)N[C@@H](C)C4)c4[nH]nnc34)cc(F)c2n1" ?
> 10000 nM

What measured IC50 goes with "Cc1cn2cc(NC(=O)c3c(C4CC4)cc(N4CCC(NC5CC5)CC4)c4cn(C)nc34)nc2c(C)n1" ?
> 10000 nM

What measured IC50 goes with "Cn1cc2cc(NC(=O)c3c(F)cc(N4CCC(NC5CC5)CC4)c4cn(C)nc34)c(Cl)cc2n1" ?
> 10000 nM

What measured IC50 goes with "CNC12CC(C1)N(c1ccc(C(=O)Nc3cc(F)c4nc(C)cn4c3)c3nn(C)cc13)C2" ?
100 to 1000 nM

What measured IC50 goes with "CO[C@H]1C[C@@H](N[C@H]2CCN(c3ccc(C(=O)Nc4cc(F)c5nc(C)cn5c4)c4nn(C)cc34)C2)C1" ?
100 to 1000 nM

What measured IC50 goes with "CCNC1CCN(c2cc(F)c(C(=O)Nc3cc(F)c4nc(C)n(C)c4c3)c3nn(C)cc23)CC1" ?
> 10000 nM

What measured IC50 goes with "CCNC1CCN(c2ccc(C(=O)Nc3cn4cc(C)nc(C5CC5)c4n3)c3nn(C)cc23)CC1" ?
1000 to 10000 nM

What measured IC50 goes with "Cc1cn2cc(NC(=O)c3c(F)cc(N4CCC(NC5CC5)CC4)c4cn(C)nc34)c(F)c2c(C)n1" ?
100 to 1000 nM

What measured IC50 goes with "Cn1cc2c(N3CCC(NC4CC4)CC3)cc(F)c(C(=O)Nc3ccc4c(c3)COB4O)c2n1" ?
> 10000 nM

What measured IC50 goes with "COc1nnccc1NC(=O)c1c(F)cc(N2CCC(NC3CC3)CC2)c2cn(C)nc12" ?
> 10000 nM

What measured IC50 goes with "CCNC1CCN(c2cc(F)c(C(=O)Nc3cn4cc(C)nc4c(N)c3OC)c3nn(C)cc23)CC1" ?
< 100 nM

What measured IC50 goes with "Cc1cn2cc(NC(=O)c3ccc(N4CC(N5CCNCC5)C4)c4cn(C)nc34)nc2c(C)n1" ?
> 10000 nM
